Catalogue of compounds with associated IC50
Target: interaction between p53 and MDM2 proteins (Homo sapiens)
Sequence (Q00987 whole entry): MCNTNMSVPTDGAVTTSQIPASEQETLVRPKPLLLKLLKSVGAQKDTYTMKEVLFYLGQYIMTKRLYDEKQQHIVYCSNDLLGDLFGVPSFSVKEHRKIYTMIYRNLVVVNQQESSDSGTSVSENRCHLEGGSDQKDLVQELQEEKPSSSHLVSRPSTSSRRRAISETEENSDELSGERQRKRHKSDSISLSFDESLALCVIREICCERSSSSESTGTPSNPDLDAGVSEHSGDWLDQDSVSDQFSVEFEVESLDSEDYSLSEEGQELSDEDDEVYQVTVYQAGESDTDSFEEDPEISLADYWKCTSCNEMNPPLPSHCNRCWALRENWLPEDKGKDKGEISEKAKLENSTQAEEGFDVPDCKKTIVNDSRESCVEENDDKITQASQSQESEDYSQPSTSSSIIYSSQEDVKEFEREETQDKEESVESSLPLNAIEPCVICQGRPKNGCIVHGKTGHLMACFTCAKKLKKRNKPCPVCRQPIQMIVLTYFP
Experiment: HTRF assay of inhibition of the p53-MDM2 interaction (GST-MDM2 / biotinylated p53 peptide)
Format: binding
Conditions: 0.02% BSA
ENDPOINT_NAME: IC50 (nM)

>  <COMPOUND>
COc1cc(F)c(Cl)cc1[C@@H]1CC(=S)N[C@H](c2cc(F)ccc2C)[C@@]12C(=O)Nc1cc(Cl)ccc12 (racemic) [Example 62]

>  <ENDPOINT_NAME>
IC50

>  <OBSERVED_RESULT>
1090

$$$$
>  <COMPOUND>
CONC(=O)C(C)(C)Oc1ccc(Cl)cc1[C@H]1CC(=S)N[C@@H](c2cc(F)ccc2C)[C@]12C(=O)Nc1cc(Cl)ccc12 (racemic) [Example 73]

>  <ENDPOINT_NAME>
IC50

>  <OBSERVED_RESULT>
607

$$$$
>  <COMPOUND>
COC(=O)C1(Oc2ccc(Cl)cc2[C@H]2CC(=S)N[C@@H](c3cc(F)ccc3C)[C@]23C(=O)Nc2cc(Cl)ccc23)CCC1 (racemic) [Example 50]

>  <ENDPOINT_NAME>
IC50

>  <OBSERVED_RESULT>
4330

$$$$
>  <COMPOUND>
Cc1ccc(F)cc1[C@@H]1NC(=S)C[C@H](c2cc(Cl)ccc2OC(C)(C)C(=O)O)[C@@]12C(=O)Nc1cc(Cl)ccc12 [Example 8]

>  <ENDPOINT_NAME>
IC50

>  <OBSERVED_RESULT>
50

$$$$
>  <COMPOUND>
CCC(CC)(Oc1ccc(Cl)cc1[C@H]1CC(=S)N[C@@H](c2cc(F)ccc2C)[C@]12C(=O)Nc1cc(Cl)ccc12)C(=O)NS(C)(=O)=O [Example 24]

>  <ENDPOINT_NAME>
IC50

>  <OBSERVED_RESULT>
22

$$$$

The measurements presented in this section are drawn from patent US8076482B2.
